Attribution: patent US20260242478A1

target: T1, Anti-PSMA Fab; test: phage ELISA; biotinylated PSMA Fab on neutravidin plate, clonal phage supernatant, anti-M13-HRP detection;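 further: wells were preincubated with blocking buffer containing PSMA antigen or with blocking buffer only, then phage supernatant was added without washing for a brief incubation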
T1 construct: Biotinylated and captured on neutravidin coated plates in the panning ELISA; also called 006 PSMA Fab
Where no end group is shown, it is not given here.
I'd appreciate it if you could supply Phage binding ELISA signal, Anti-PSMA Fab values for the items below.
Answers are plain numbers.

- binder: "LGLACIPEWMCVGF (also called peptide-180 library clone) [Phage-2908]"
  assay value: 2.33
- binder: "VDRMCVPKWMCEGL (also called peptide-180 library clone) [Phage-2916]"
  assay value: 2.32
- binder: "VEPSCVPYWMCLGF (cysteine pairing not given here; also: peptide displayed as fusion to phage pIII, also called peptide-180 library clone) [Phage-2906]"
  assay value: 2.33

Would you be so kind as to report Phage binding ELISA signal, Anti-PSMA Fab for each listed record?
1. AEMRCIPEWMCSGF (also called peptide-180 library clone) [Phage-2907]
2. EKPVCVPSWMCTGF (also called peptide-180 library clone) [Phage-2911]
3. AVPLCMPKWMCTGF (also called peptide-180 library clone) [Phage-2910]

-- reply
[2.33, 2.33, 2.33]

-- ask Record request: Phage binding ELISA signal, Anti-PSMA Fab value, item GLALCKPEWMCIGF (also called peptide-180 library clone) [Phage-2914]
-- reply 2.32
